system: Pr. vulgaris, 08601
Structures can show the parent of a compound that is named as a salt.
Please respond with reported MIC for every item in the list.

Incoming: Name the recorded MIC of the item NC1CN(c2c(F)cc3c(=O)c(C(=O)O)cn(C4CC4F)c3c2Cl)CC12CC2 (stereo not shown) [Compound 26ba] in your answer.
Outgoing: < 0.1 µg/mL

Incoming: Name the recorded MIC of the item Cc1c(N2CC[C@@H]([C@H](C)N)C2)c(F)cc2c(=O)c(C(=O)O)cn(C3CC3F)c12 (single isomer, unassigned; (-)) [Compound 54b, hydrochloride] in your answer.
Outgoing: < 0.1 µg/mL

Incoming: Name the recorded MIC of the item C[C@H](N)[C@@H]1CCN(c2c(F)cc3c(=O)c(C(=O)O)cn(C4CC4F)c3c2Cl)C1 (single isomer, unassigned; (-)) [Compound 34b] in your answer.
Outgoing: < 0.1 µg/mL

Incoming: Name the recorded MIC of the item CC1(C)CN(c2c(F)cc3c(=O)c(C(=O)O)cn([C@@H]4C[C@@H]4F)c3c2Cl)CC1N (single isomer, unassigned; (-)) [Compound 59b] in your answer.
Outgoing: < 0.1 µg/mL

// provenance: patent USRE41149E1
